target: P. falciparum apicoplast DNA polymerase (Pf-apPOL) (Plasmodium falciparum)
procedure_details: Fluorescence-based high-throughput DNA polymerase assay (molecular beacon), primary screen and dose-response
Type: biochemical
experimental_context: DRC-1; 90'; concentration 20
measured_metric: % inhibition Apol 90' (%)
Number in %, nothing else.

Q. I have this molecule here, CSC1=C(C#N)C(=C(C#N)C#N)NC(c2ccccc2)=N1 [Molecule 2, CSc1nc([nH]c(=C(C#N)C#N)c1C#N)c1ccccc1] , and I need its recorded % inhibition Apol 90'.
A. 88.8682

Q. % inhibition Apol 90' lookup needed for CCCCc1ccc(NC(=O)CSc2nc(O)c(C#N)c(C3CCCCC3)n2)c(C)c1 , thanks.
A. 77.2827

Q. Name the reported % inhibition Apol 90' value associated with the molecule CC(NC(=O)Cc1cc(=O)[nH]c(SCc2cccc(Cl)c2)n1)c1ccccc1 (stereo not drawn)
A. 26.5805

Q. Name the recorded % inhibition Apol 90' for O=C1NCCCn2cc(S(=O)(=O)Nc3ccccc3)cc21 .
A. 23.2222

Q. Entry under review: O=c1cc(CN2CCCCC2)c2cc3c(cc2o1)OCO3 . Reported % inhibition Apol 90'?
A. 41.1965

Q. What value of measured % inhibition Apol 90' is listed for Cc1ccc(NC(=O)Cn2ccc3c(=O)[nH]ccc32)cc1F [Molecule 48, O=C(Cn1ccc2c1cc[nH]c2=O)Nc1ccc(c(c1)F)C] ?
A. 47.267

Q. I'd like to know its % inhibition Apol 90'. The molecule in question is CC1=NNC(=O)C1Oc1ccc(Cl)cc1Cl (stereo not drawn)
A. 19.9514

Q. Name the recorded % inhibition Apol 90' for COc1cc(NC(=O)c2ccccc2)c(OC)cc1NC(=O)Cc1cccs1 .
A. 53.4832

Q. What value of % inhibition Apol 90' has been recorded for this entry: CCSc1nnc(NC(=O)Cc2csc(NC(=O)c3cnccn3)n2)s1
A. 6.401

Q. Could you tell me which % inhibition Apol 90' is on file for CN(C)C=CC(=O)c1ccccn1 ?
A. 33.6237

Q. # get_value(readout='% inhibition Apol 90'', item= O=[N+]([O-])c1cc2c(cc1CN1CCCCCC1)OCO2 )
A. 21.3205

Q. May I ask what % inhibition Apol 90' has been recorded for COc1ccc(NC(=O)Cn2ccc3c(=O)[nH]ccc32)cc1Cl [Molecule 10, COc1ccc(cc1Cl)NC(=O)Cn1ccc2c1cc[nH]c2=O] ?
A. 69.5261

Q. Item Cc1ccc2c(C(=O)NCCc3cccnc3)cc(NC(=O)C(C)C)cc2n1 has what recorded % inhibition Apol 90'?
A. 20.9182

Q. Entry Oc1ccc(N=Nc2ccccc2)c(O)c1 has what % inhibition Apol 90'?
A. 15.0719

Q. Any idea what its % inhibition Apol 90' is? The molecule is Cc1ccc(C)n1-c1ccc(C(=O)NNC(=O)c2ccc3nccnc3c2)cc1
A. 31.5983

Q. Any idea what its % inhibition Apol 90' is? The molecule is O=C(CSc1nnc(-c2ccncc2)[nH]1)c1ccc(O)c(O)c1
A. 84.6554

Q. So what does the record say about % inhibition Apol 90' for O=c1[nH]c2ccc([N+](=O)[O-])cc2c(-c2ccccc2)c1Sc1nc2ccccc2o1 ?
A. 30.6503

Q. Record request: % inhibition Apol 90' value, item CCOC(=O)C(NCc1ccco1)(NC(=O)c1ccco1)C(F)(F)F (stereo not drawn)
A. 14.6625

Q. Value lookup for % inhibition Apol 90'; key = O=c1[nH]c2ccc(Br)cc2c(-c2ccccc2)c1C1=NNC(c2ccco2)C1 (stereo not drawn)
A. 57.4465

Q. Field request: % inhibition Apol 90' | item: Cc1ccccc1C(=O)N1CCc2c(nc3cc(-c4ccccc4)[nH]n3c2=O)C1
A. 59.5671

Q. Request the reported % inhibition Apol 90' associated with CCCCSc1nnc2c(n1)OC(c1ccc([N+](=O)[O-])o1)Nc1ccccc1-2 (stereo not drawn)
A. 63.8014

Q. Quick one: % inhibition Apol 90' for CCOC(=O)C1=C2c3cc(OC)c(OC)cc3CC(C)(C)N2C(=O)C1=O ?
A. 44.3755

Q. Quick check: % inhibition Apol 90' of O=C(Nc1ccc2c(c1)Cc1cc(NC(=O)c3ccco3)ccc1-2)c1ccco1 ?
A. 25.9

Q. Requested field: % inhibition Apol 90'. Item: COc1ccc(C(=O)Nc2cccc(-c3nc4ncccc4o3)c2)cc1[N+](=O)[O-]
A. 41.4228

Q. Name the recorded % inhibition Apol 90' for Cc1ccc(C)c(CSc2nc(C3CCCCC3)c(C#N)c(=O)[nH]2)c1 .
A. 83.4926

Q. Which % inhibition Apol 90' reading was recorded for the molecule O=C(CSc1nc2ccccc2s1)Nc1ncc([N+](=O)[O-])s1 ?
A. 72.9689

Q. Query (molecule): CN(C)S(=O)(=O)Oc1ccc(-c2noc(-c3ccc(Oc4cc(Cl)cc(Cl)c4)o3)n2)cc1 ; field requested: % inhibition Apol 90'
A. 55.9318

Q. GET /values?readout=% inhibition Apol 90'&item= N#CC(=NNc1cc(C(F)(F)F)cc(C(F)(F)F)c1)C(=O)c1ccco1
A. 52.5694

Q. Item under review: O=C(Cn1ccc2c(=O)[nH]ccc21)Nc1cc(F)ccc1F [Molecule 42, O=C(Cn1ccc2c1cc[nH]c2=O)Nc1cc(F)ccc1F] . Reported % inhibition Apol 90'?
A. 52.2284

Q. Form field: reported % inhibition Apol 90' of O=C1c2ccccc2C(=O)N1Oc1ccc([N+](=O)[O-])c([N+](=O)[O-])c1
A. 22.9091

Q. For the molecule shown here, Nc1c(S(=O)(=O)O)cc(Nc2ccccc2)c2c1C(=O)c1ccccc1C2=O , give the reported % inhibition Apol 90'.
A. 73.4923

Q. Requested read-out: % inhibition Apol 90'. Entry: O=C1N/C(=N/c2ccccc2Cl)S/C1=C/c1ccc([N+](=O)[O-])o1
A. 38.2807

Q. Data request, read-out % inhibition Apol 90', for NC(=O)c1cc[n+](CC2=C(C(=O)[O-])N3C(=O)[C@@H](NC(=O)[C@@H](c4ccccc4)S(=O)(=O)[O-])[C@H]3SC2)cc1.[Na+]
A. 88.3864

---

target: P. falciparum apicoplast DNA polymerase (Pf-apPOL) (Plasmodium falciparum, UniProt Q8ILY1)
Sequence (Q8ILY1 entry or part of it): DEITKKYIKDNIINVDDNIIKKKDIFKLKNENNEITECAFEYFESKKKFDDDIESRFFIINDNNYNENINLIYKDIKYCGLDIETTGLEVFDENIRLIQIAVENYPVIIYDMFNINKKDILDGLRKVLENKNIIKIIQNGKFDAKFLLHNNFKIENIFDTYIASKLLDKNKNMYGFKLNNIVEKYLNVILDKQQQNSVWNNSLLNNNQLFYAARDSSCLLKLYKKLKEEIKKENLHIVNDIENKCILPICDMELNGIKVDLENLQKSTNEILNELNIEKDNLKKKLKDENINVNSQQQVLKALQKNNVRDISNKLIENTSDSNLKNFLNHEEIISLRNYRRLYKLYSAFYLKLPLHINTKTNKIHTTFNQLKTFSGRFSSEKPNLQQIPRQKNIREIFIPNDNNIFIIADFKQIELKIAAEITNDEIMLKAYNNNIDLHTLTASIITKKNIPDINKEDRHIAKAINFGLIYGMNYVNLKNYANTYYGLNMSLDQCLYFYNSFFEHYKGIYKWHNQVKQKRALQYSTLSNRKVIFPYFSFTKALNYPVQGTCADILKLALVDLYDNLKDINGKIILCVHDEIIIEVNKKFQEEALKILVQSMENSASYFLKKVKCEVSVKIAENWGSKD
procedure_details: Fluorescence-based high-throughput DNA polymerase assay (molecular beacon), primary screen and dose-response;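 on % inhibition apPOL 180': test concentration in µM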
Format: biochemical
experimental_context: DRC-2, 180', concentration 80 (unit not given)
Use 1.0 when the recorded % inhibition apPOL 180' is no lower than 70%; use 0.0 when it is lower.

Q. Confirm if % inhibition apPOL 180' reported for the molecule O=C(Cn1ccc2c(=O)[nH]ccc21)Nc1ccc(Cl)cc1 [Molecule 36, O=C(Cn1ccc2c1cc[nH]c2=O)Nc1ccc(cc1)Cl] is 70% or above.
A. 0.0

Q. Please indicate if the recorded % inhibition apPOL 180' for Nc1c(S(=O)(=O)O)cc(Nc2ccccc2)c2c1C(=O)c1ccccc1C2=O meets or exceeds 70%.
A. 1.0

Q. % inhibition apPOL 180' >= 70% for Cc1ccc(C)c(CSc2nc(C3CCCCC3)c(C#N)c(=O)[nH]2)c1 ?
A. 1.0

Q. hey, is % inhibition apPOL 180' for this one >= 70%? NC(=O)c1cc[n+](CC2=C(C(=O)[O-])N3C(=O)[C@@H](NC(=O)[C@@H](c4ccccc4)S(=O)(=O)[O-])[C@H]3SC2)cc1.[Na+]
A. 1.0

Q. Evaluate O=C(Cn1ccc2c(=O)[nH]ccc21)Nc1cccc(Cl)c1 [Molecule 23, O=C(Cn1ccc2c1cc[nH]c2=O)Nc1cccc(c1)Cl] : % inhibition apPOL 180' at minimum 70%?
A. 0.0

Q. Check if % inhibition apPOL 180' >= 70% (inclusive). Item: OC(C#Cc1ccccc1)c1ccco1 (stereo not shown)
A. 0.0

---

target: UniProt Q8ILY1
procedure_details: Fluorescence-based high-throughput DNA polymerase assay (molecular beacon), primary screen and dose-response
Type: biochemical
experimental_context: DRC-1; 180'; concentration 20
Consider the following compounds; for each one, report its % inhibition apPOL 180'.
Please give a number only; it is taken to be in %.

Q. I'd like to know its % inhibition apPOL 180'. The compound in question is CCOc1ccccc1-c1nc(-c2ccc(=O)[nH]c2)no1 [Molecule 76, CCOc1ccccc1c1onc(n1)c1ccc(=O)[nH]c1]
A. 13.7998

Q. Give its % inhibition apPOL 180' value. Item: O=[N+]([O-])c1ccc(/C=C/c2ccc3ccccc3n2)o1 [Molecule 21, O=N(=O)c1ccc(o1)/C=C/c1ccc2c(n1)cccc2]
A. 74.6169

Q. Value lookup for % inhibition apPOL 180'; key = COc1ccc(-c2cc3nc4c(c(=O)n3[nH]2)CCN(C(=O)CCc2ccccc2)C4)cc1 [Molecule 17]
A. 55

Q. # lookup: % inhibition apPOL 180' of CN1CC(=Cc2ccco2)C(=O)C(=Cc2ccco2)C1 [Molecule 65, CN1CC(=Cc2ccco2)C(=O)C(=Cc2ccco2)C1]
A. 24.3352

Q. Value lookup for % inhibition apPOL 180'; key = CN(C)C1C(c2ccccc2)=C(c2ccccc2)SC(c2ccccc2)C1[N+](=O)[O-] (stereo not shown) [KU0268387]
A. 41.7834

Q. Please give the measured % inhibition apPOL 180' for this compound: O=[N+]([O-])/C=C/c1ccc(-c2ccc(Br)cc2)o1 [Molecule 31, O=N(=O)/C=C/c1ccc(o1)c1ccc(cc1)Br]
A. 51.8012

Q. Give the measured % inhibition apPOL 180' of Cc1cccc(CC(=O)N2CCc3c(nc4cc(-c5ccccc5)[nH]n4c3=O)C2)c1 [Molecule 12] .
A. 55
